tested on: PC-3 prostate; assay: NCI tumour cell line growth inhibition, 48 h
observedProperty: TGI

molecule=CC1(C)N=C(N)N=C(N)N1c1ccc(F)c(C(F)(F)F)c1 observedvalue="> 100 µM"
molecule=COC(=O)C1=Nc2c(C)nn(-c3ccccc3)c2N=C(c2ccc(C)cc2)C1 observedvalue="> 10 µM"
molecule=[Cu+2].[O-]c1ccc2ccccc2c1N=Nc1ccccc1.[O-]c1ccc2ccccc2c1N=Nc1ccccc1 observedvalue="> 100 µM"
molecule=C(=C1c2ccccc2-c2ccccc21)c1ccccn1 observedvalue="> 100 µM"
molecule="COc1ccc(C2SCC(=O)N2c2ccc(-c3ccc(-n4c(-c5ccccc5)nc5ccccc5c4=O)cc3)cc2)cc1 (stereo unspecified)" observedvalue="> 100 µM"

Now, please, on to the next molecule.
[Q] Record lookup: for PC-3 prostate, what TGI belongs to "O=C(Cn1nc(Br)c(Br)c1Br)c1ccccc1" ?
[A] > 100 µM
